Tested On: T1, cynomolgus monkey CD8 alpha on primary cynomolgus CD8+ T cells (cynomolgus monkey, UniProt P01732 23-235 (human entry))
T1 construct: also called Cyno CD8alpha; cyno CD8A
T1 sequence (P01732 other isoform, or with tags, fused parts or gaps limits assumed): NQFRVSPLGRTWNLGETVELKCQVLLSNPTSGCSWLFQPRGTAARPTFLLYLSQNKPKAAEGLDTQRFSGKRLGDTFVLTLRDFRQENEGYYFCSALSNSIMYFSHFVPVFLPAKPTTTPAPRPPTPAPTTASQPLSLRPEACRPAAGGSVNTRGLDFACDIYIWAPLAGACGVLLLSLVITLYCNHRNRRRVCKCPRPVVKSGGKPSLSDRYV
Procedure Summary: flow cytometry, cyno CD8+ T cells
Method: Binding of the 190 ELISA hits to human and cynomologous monkey primary CD8 T cells was assessed by flow cytometry. The FN3 domain molecules were diluted to 2 μM and 0.2 μM in PBS and incubated with human or cynomologous monkey CD8+ T cells in 96-well format. […] Cells were gating on live cells and median fluorescence intensity of the bound Centyrins (PE channel) was calculated using Cytobank software.
Kindly supply the reported Cyno T-cell Binding 2 uM (MFI) values for the records listed here.
Kindly provide the numeric value in MFI only, without the unit symbol.

GET /value?item= P283DR9P1364_H11 (designed binder, FN3 domain) LPAPKNLVVSRVTEDSARLSWTAPDAAFDSFDIAYPELPLGGEAIVLTVPGSERSYDLTGLKPGTEYFVIIWGVKGGDRSEPLSAIFTT &field=Cyno T-cell Binding 2 uM (MFI) returns 60600

GET /value?item= P283DR9P1364_F8 (designed binder, FN3 domain) LPAPKNLVVSRVTEDSARLSWTAPDAAFDSFAIAYPEWPPGEAIVLTVPGSERSYDLTGLKPGTEYFVIIYGVKGGWTSPPLSAIFTT &field=Cyno T-cell Binding 2 uM (MFI) returns 36700

GET /value?item= P283DR9P1364_E5 (designed binder, FN3 domain) LPAPKNLVVSRVTEDSARLSWTAPDAAFDSFWISYPEWPVPGEAIVLTVPGSERSYDLTGLKPGTEYWVIIQGVKGGKLSWPLSAIFTT &field=Cyno T-cell Binding 2 uM (MFI) returns 55700
